All values here come from patent US5047397A.

In this section, each of the molecules is paired with its reported Ki(app).
# EXPERIMENTAL_SYSTEM: specific ANP receptor sites on BASM or BAE cells (Bos taurus, UniProt P10730)
# Construct: specific receptor sites on BASM or BAE cells; endogenous in cells; host or cells: cultured BASM and BAE cells
# Sequence (P10730 42-537): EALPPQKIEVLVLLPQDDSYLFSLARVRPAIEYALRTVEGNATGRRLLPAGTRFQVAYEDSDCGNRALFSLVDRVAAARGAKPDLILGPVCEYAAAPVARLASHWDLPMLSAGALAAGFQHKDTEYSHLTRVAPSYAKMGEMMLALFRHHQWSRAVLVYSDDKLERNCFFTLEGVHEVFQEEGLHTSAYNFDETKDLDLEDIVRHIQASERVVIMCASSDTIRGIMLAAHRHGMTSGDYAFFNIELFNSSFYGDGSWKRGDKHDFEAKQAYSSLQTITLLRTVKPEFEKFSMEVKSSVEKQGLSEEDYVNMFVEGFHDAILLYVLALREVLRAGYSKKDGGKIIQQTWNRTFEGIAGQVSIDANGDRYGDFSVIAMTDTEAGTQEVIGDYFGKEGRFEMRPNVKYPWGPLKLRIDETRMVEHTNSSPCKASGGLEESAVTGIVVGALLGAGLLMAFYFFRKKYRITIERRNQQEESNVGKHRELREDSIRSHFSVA
# ASSAY: Competitive displacement receptor binding of (125I)-rANP(126-150) on cultured cells
# Design: species or system bovine
# MEASUREMENT_SETUP: concentration of unlabeled peptide displacing 50% of maximal binding of 0.5 nM (125I)-rANP(126-150); BASM or BAE cells
Where a SMILES comes first, the peptide text is derived from it. The star is where a group is joined. ξ: configuration not given here. Acetyl(2-naphthyloxy) = O=C(COc1ccc2ccccc2c1)*; ξNaproxenoyl = COc1ccc2cc(C(C)C(=O)*)ccc2c1; X4 = O=C(Cc1ccc(NCCc2ccc3ccccc3c2)cc1)*; 4Abz = Nc1ccc(C(=O)O)cc1; GABA = NCCCC(=O)O

# example entries with known answers
molecule="CC[C@H](C)[C@H](NC(=O)[C@H](CCCNC(=N)N)NC(=O)[C@H](CC(=O)O)NC(=O)[C@@H](NC(=O)[C@H](CCCNC(=N)N)NC(=O)CCCNC(=O)COc1ccc2ccccc2c1)[C@@H](C)CC)C(=O)NCC(=O)N[C@@H](C)C(N)=O [AP576] ({Acetyl(2-naphthyloxy)-GABA}-RIDRIGA-NH2)" observed_result="16.0 nM"
molecule="CC[C@H](C)[C@H](NC(=O)[C@H](CCCNC(=N)N)NC(=O)[C@H](CC(=O)O)NC(=O)[C@@H](NC(=O)[C@H](CCCNC(=N)N)NC(=O)Cc1ccc(NCCc2ccc3ccccc3c2)cc1)[C@@H](C)CC)C(N)=O [AP796] (X4-RIDRI-NH2)" observed_result="27.3 nM"
molecule="CC[C@H](C)[C@H](NC(=O)[C@H](CCCNC(=N)N)NC(=O)[C@H](CC(=O)O)NC(=O)[C@@H](NC(=O)[C@H](CCCNC(=N)N)NC(=O)c1ccc(NC(=O)COc2ccc3ccccc3c2)cc1)[C@@H](C)CC)C(N)=O [AP791] ({Acetyl(2-naphthyloxy)-4Abz}-RIDRI-NH2)" observed_result="31.1 nM"

Here's the next entry for you.
What measured Ki(app) goes with CC[C@H](C)[C@H](NC(=O)[C@H](CCCNC(=N)N)NC(=O)[C@H](CC(=O)O)NC(=O)[C@@H](NC(=O)[C@H](CCCNC(=N)N)NC(=O)CNC(=O)CNC(=O)C(C)c1ccc2cc(OC)ccc2c1)[C@@H](C)CC)C(=O)NCC(=O)N[C@@H](C)C(N)=O (stereo partly shown) [AP528] (ξNaproxenoyl-GGRIDRIGA-NH2) ?
22.5 nM
